Molecular target: purified catalytic domain of recombinant human TACE (rhTACEc) (Homo sapiens, UniProt P78536, N452Q/S266A)
Construct: 6xHis (C); made in house; host or cells: baculovirus/Hi5 insect cells
Sequence (P78536 215-477 S266A/N452Q): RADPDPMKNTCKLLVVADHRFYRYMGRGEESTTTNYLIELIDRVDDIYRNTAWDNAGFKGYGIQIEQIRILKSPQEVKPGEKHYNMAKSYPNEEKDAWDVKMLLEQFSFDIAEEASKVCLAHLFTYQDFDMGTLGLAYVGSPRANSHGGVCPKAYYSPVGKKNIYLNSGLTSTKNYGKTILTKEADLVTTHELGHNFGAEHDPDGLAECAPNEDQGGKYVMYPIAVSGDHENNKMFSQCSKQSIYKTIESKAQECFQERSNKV
Assay: TACE kinetic assay: cleavage of internally quenched peptide substrate TNF-FRET 2 (Ki)
Type: biochemical
Details: TNF-FRET 2 substrate, read-out: Ki
measured parameter: Ki (nM)

INSERT INTO measurements (compound, assay_result) VALUES
  ('COCCNC(=O)c1ccc2cc([C@]3(CN4Cc5ccc(OC)cc5C4=O)NC(=O)NC3=O)oc2c1', 0.6),
  ('COc1ccc2c(c1)C(=O)N(C[C@@]1(c3cc4nc(N5CCCCC5)ccc4o3)NC(=O)NC1=O)C2', 0.34),
  ('COc1ccc2c(c1)C(=O)N(C[C@@]1(c3cc4cc(C)c(S(N)(=O)=O)cc4o3)NC(=O)NC1=O)C2', 0.36),
  ('COc1ccc2c(c1)C(=O)N(C[C@@]1(c3cc4nc(C(=O)NC5CC5)ccc4o3)NC(=O)NC1=O)C2 [Compound 2464]', 0.115);

P. COc1ccc2c(c1)C(=O)N(C[C@@]1(c3cc4cc(-c5c(C)nn(C)c5C)ccc4o3)NC(=O)NC1=O)C2
Q. COc1ccc2c(c1F)C(=O)N(C[C@@]1(c3cc4nc(N5CCNCC5)ccc4o3)NC(=O)NC1=O)C2
R. COc1ccc2c(c1)C(=O)N(C[C@@]1(c3cc4c(C)nc(O)c(C(N)=O)c4o3)NC(=O)NC1=O)C2
Ranking field: Ki; order: falling. Output the labels ranked as instructed.
R, Q, P
(R: 1.14 nM, Q: 0.6 nM, P: 0.403 nM)

I. COc1ccc2c(c1F)C(=O)N(C[C@@]1(c3cc4nc(-c5ccnc(N6CCN(C(=O)C(F)(F)F)CC6)c5)ccc4o3)NC(=O)NC1=O)C2
II. COc1ccc2c(c1)C(=O)N(C[C@@]1(c3cc4cc(C(=O)N5CCN(C)CC5)c(C)cc4o3)NC(=O)NC1=O)C2
Which numeric Ki is bigger, that of I or that of II ? Which one? Tell me its label.
II

a. COc1ccc2c(c1)C(=O)N(C[C@@]1(c3cc4nc(C(N)=O)ccc4o3)NC(=O)NC1=O)C2
b. COc1ccc2c(c1)C(=O)N(C[C@@]1(c3cc4cc(-c5nnc[nH]5)ccc4o3)NC(=O)NC1=O)C2
In terms of reported Ki, does a or b have the smaller number? Which one? Tell me its label.
b
(b: 0.355 nM, a: 0.55 nM)
